As shown below, each of these variants has a reported protein stability index value.
B1: ZNF449 (parent)
chain: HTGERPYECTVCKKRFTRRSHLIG

Variants of: B1
test description: protein stability index of a GFP-peptide fusion (GPS, HEK-293T) (PSI 1-6); higher = more stable;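 also: lentivirally expressed fusions sorted by FACS into six bins by GFP to DsRed ratio, PSI derived from sequencing read proportions per bin multiplied by bin number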
study conditions: c terminus: a fixed tail appended
parameter measured: protein stability index

INSERT INTO assay_data (sequence, parameter_measured, quantitative_readout) VALUES
  ('HTDERPYECTVCKKRFTRRSHLIG', 'protein stability index', 2.44),
  ('HTGERPYECTVCKKRFVRRSHLIG', 'protein stability index', 1.92),
  ('HTGERPYECTVCKKRFTRRSHKIG', 'protein stability index', 2.35),
  ('HTGERPYECTVCKKRFTRGSHLIG', 'protein stability index', 2.22),
  ('HTGERWYECTVCKKRFTRRSHLIG', 'protein stability index', 2.38),
  ('HTGERPYECTVCKKRFTRRSSLIG', 'protein stability index', 2.93),
  ('HTGERPYECTVCKKRFTRRAHLIG', 'protein stability index', 1.44),
  ('HTGERPYECTVCPKRFTRRSHLIG', 'protein stability index', 2.86),
  ('HTGERPYECTVNKKRFTRRSHLIG', 'protein stability index', 3.42),
  ('HPGERPYECTVCKKRFTRRSHLIG', 'protein stability index', 1.8),
  ('HTGTRPYECTVCKKRFTRRSHLIG', 'protein stability index', 2.76),
  ('HTGERPYECTVCKKRFTRRSHLIK', 'protein stability index', 3.12),
  ('HTGERPYECLVCKKRFTRRSHLIG', 'protein stability index', 2.37),
  ('HTGERPYHCTVCKKRFTRRSHLIG', 'protein stability index', 2.12),
  ('HTGERPYEMTVCKKRFTRRSHLIG', 'protein stability index', 2.8),
  ('HTGYRPYECTVCKKRFTRRSHLIG', 'protein stability index', 1.58),
  ('HTGERPYECTVCKKRFTRHSHLIG', 'protein stability index', 1.96),
  ('HTGERPYECTCCKKRFTRRSHLIG', 'protein stability index', 2.29),
  ('HMGERPYECTVCKKRFTRRSHLIG', 'protein stability index', 1.76),
  ('HTGERPGECTVCKKRFTRRSHLIG', 'protein stability index', 2.01),
  ('HTGERPYECTVCKKRFRRRSHLIG', 'protein stability index', 2.95),
  ('HTGERPYECTVCKKRCTRRSHLIG', 'protein stability index', 2.42);
